Target: human α-thrombin (Homo sapiens)
Assay: In vitro enzyme assay for specificity: Thrombin (fIIa) assay, IC50
Format: biochemical
Details: Table 3; read-out: IC50 (nM) thrombin
recorded.endpoint: IC50 (nM)

compound: N=C(N)NCCC[C@@H](C=O)NC(=O)CN1CCCC(NS(=O)(=O)Cc2cccc(C(F)(F)F)c2)C1=O (some centres unmarked) [Example 36(p)]
recorded.endpoint: IC50
observed.measurement: 1.9
--
compound: NC(N)=NCCC[C@@H](C=O)NC(=O)CN1CCCCC(NS(=O)(=O)Nc2ccccc2)C1=O (some centres unmarked) [Example 36(n)]
recorded.endpoint: IC50
observed.measurement: 14.2
--
compound: NC(N)=NCCC[C@@H](C=O)NC(=O)CN1CCCCC(N)(Cc2ccccc2)C1=O (some centres unmarked) [Example 64]
recorded.endpoint: IC50
observed.measurement: 5.41
--
compound: NC(N)=NCCC[C@@H](C=O)NC(=O)CN1CCCCC(NS(=O)(=O)Cc2ccccc2)C1=O (stereo partly drawn) [Example 34, N-(BnSO2 -norLeu(cyclo)-Gly)-L-argininal]
recorded.endpoint: IC50
observed.measurement: 0.71
--
compound: N=C(N)NCCC[C@@H](C=O)NC(=O)CN1CCC[C@H](NCCc2ccccc2)C1=O [Example 72(a)]
recorded.endpoint: IC50
observed.measurement: 3.09

P: Cc1ccccc1CS(=O)(=O)NC1CCCN(CC(=O)N[C@H](C=O)CCCNC(=N)N)C1=O (some centres unmarked) [Example 36(q)]
Q: NC(N)=NCCC[C@@H](C=O)NC(=O)CN1CCCC(N)(Cc2ccccc2)C1=O (some centres unmarked) [Example 55]
Query: When the recorded IC50 values are compared, which is smaller: that of P or that of Q ? Give the chosen item's label as your response.
Result: P

====

Target: human α-thrombin (Homo sapiens)
Experiment: In vitro enzyme assay for specificity: Thrombin (fIIa) assay, IC50
Type: biochemical
Conditions: Table 2; 30-minute incubation with enzyme before substrate; read-out: IC50 alpha-thrombin
recorded.endpoint: IC50 (nM)

I: NC(N)=NCCC[C@@H](C=O)NC(=O)CN1CCCCC(NS(=O)(=O)CC2CCCCC2)C1=O (some centres unmarked)
II: NC(N)=NCCC[C@@H](C=O)NC(=O)CN1CCCCC(NS(=O)(=O)Cc2ccccc2)C1=O (some centres unmarked)
Query: Lower IC50: I or II ? Response format: the label of the selected entry.
Result: II

====

Biological target: human aPC (Homo sapiens, UniProt P04070)
Construct: purchased Hematologic Technologies, Inc
Sequence (P04070 43-197 limits assumed): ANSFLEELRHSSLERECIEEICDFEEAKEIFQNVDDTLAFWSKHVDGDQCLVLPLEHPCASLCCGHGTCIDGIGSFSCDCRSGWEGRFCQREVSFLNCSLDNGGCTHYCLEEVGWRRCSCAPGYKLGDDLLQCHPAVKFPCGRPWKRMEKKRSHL
Sequence (P04070 212-461 limits assumed): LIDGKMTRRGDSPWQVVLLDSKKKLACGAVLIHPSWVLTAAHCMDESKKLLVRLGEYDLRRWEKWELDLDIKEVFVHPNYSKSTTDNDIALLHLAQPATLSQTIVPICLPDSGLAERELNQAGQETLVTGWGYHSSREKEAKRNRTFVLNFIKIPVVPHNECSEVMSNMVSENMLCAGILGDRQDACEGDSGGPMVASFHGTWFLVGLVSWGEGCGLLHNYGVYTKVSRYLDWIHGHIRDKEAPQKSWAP
Test: In vitro enzyme assay for specificity: activated protein C, IC50
Assay type: biochemical
Details: Table 3
Below, each of the molecules is paired with its reported IC50 value.

Worked set:
molecule: N=C(N)NCCC[C@@H](C=O)NC(=O)CN1CCCC(NS(=O)(=O)Cc2cccc(C(F)(F)F)c2)C1=O (some centres unmarked) [Example 36(p)]
subject.of.test: human aPC (Homo sapiens, UniProt P04070)
observed.measurement: > 2500 nM

molecule: NC(N)=NCCC[C@@H](C=O)NC(=O)CN1CCCC(NS(=O)(=O)Cc2ccccc2)C1=O (some centres unmarked) [Example 8]
subject.of.test: human aPC (Homo sapiens, UniProt P04070)
observed.measurement: > 2500 nM

molecule: NC(N)=NCCC[C@@H](C=O)NC(=O)CN1CCCCC(N)(Cc2ccccc2)C1=O (some centres unmarked) [Example 64]
subject.of.test: human aPC (Homo sapiens, UniProt P04070)
observed.measurement: > 2500 nM

molecule: NC(N)=NCCC[C@@H](C=O)NC(=O)CN1CCCC(N)(Cc2ccccc2)C1=O (some centres unmarked) [Example 55]
subject.of.test: human aPC (Homo sapiens, UniProt P04070)
observed.measurement: > 2500 nM

Query: Give the measured IC50 of N=C(N)NCCC[C@@H](C=O)NC(=O)CN1CCC[C@H](NCCc2ccccc2)C1=O [Example 72(a)] .
Result: > 2500 nM

Cited source for all entries: patent US6034215A
